# Assay info: qHTS for Inhibitors of human tyrosyl-DNA phosphodiesterase 1 (TDP1): qHTS in cells in presence of CPT; also: nearly all actives have a fitted effect of over 55% in size
# Condition details: chicken DT40 Tdp1-/-;hTDP1 cells + 20 nM CPT, ATP luminescence, 48 h; series mostly up to 46.2 µM
Screen size: about 420,000 compounds; about 50,000 (12%) were called active. Another 26% or so got no clear call; they are omitted. Calls follow the shape of the dose curve; as a rule, active = well fitted inhibition curve with a large enough effect; inconclusive = small, poorly fitted or top-dose-only effect; inactive = flat fitted curve, though single readings scatter. The full list was thinned out, with actives kept by preference.
Permitted responses: y for active, n for inactive

# lookup: test call for `Cn1c(=O)c(=O)n(C)c2cc(S(=O)(=O)CCC(=O)N3CCCCC3)ccc21` n

# lookup: test call for `Cc1ccc(-n2c3nc(=O)[nH]c(=O)c-3cc3c(Cl)cccc32)cc1` y

# lookup: test call for `Cn1c(=O)nc2n(-c3ccc(Br)cc3)c3cccc(Cl)c3cc-2c1=O` n

# lookup: test call for `Cc1ccc(NC(=O)[C@H](Cc2ccccc2)NC(=O)C2CCNCC2)cc1` n

# lookup: test call for `CC(C)CC(=O)NC(=S)NCc1ccccc1` n

# lookup: test call for `CC(C)=NN1C(=O)c2ccccc2NC1(C)C` n

# lookup: test call for O=C1CC(c2cccc(Cl)c2)CC(O)=C1C=Nc1ccccc1 (stereo not given) n

# lookup: test call for `Cn1c(=O)n(C)c2cc(C(=O)Nc3ccc(Br)cc3)ccc21` n

# lookup: test call for `Cc1ccc(CCNC(=O)CN2C(=O)CSc3ccc(S(=O)(=O)N4CCOCC4)cc32)cc1` n

# lookup: test call for CC(C)c1ccc(CC(=O)N2CCC2(C)C(=O)NS(=O)(=O)c2ccc(C(C)(C)C)cc2)cc1 (stereo not given) n
